Here's what we have: IC50 numbers for EGFR wt (Homo sapiens).

Some solved entries appear below for comparison.
> print(dat)
                                   molecule  recordedmetric  assayresult
1  C=CC(=O)Nc1cc(-c2c(-c3cnn(C)c3)[nH]c3ncc(-c4cnn(CC)c4)cc23)ccc1C [Example 28]            IC50      ≤ 50 nM
2  C=CC(=O)Nc1cc(-c2c(-c3cnn(C)c3)[nH]c3ncc(C(=O)OC(C)C)c(C)c23)ccc1C [Example 7]            IC50      ≤ 50 nM

Field request: IC50 | item: C=CC(=O)Nc1cc(-c2c(-c3cnn(C)c3)[nH]c3ncc(-c4cnn(CCOC)c4)cc23)ccc1C [Example 33]
≤ 50 nM

Which IC50 is reported for this molecule? C=CC(=O)Nc1cc(-c2c(-c3cnn(CCOC)c3)[nH]c3ncc(C(=O)OC(C)C)c(C)c23)ccc1C [Example 11]
≤ 50 nM

Looking for the measured IC50 of C=CC(=O)Nc1cc(-c2c(-c3cn[nH]c3)[nH]c3ncc(C(=O)OC(C)C)c(C)c23)ccc1C [Example 20] , can you help?
≤ 50 nM

Entry C=CC(=O)Nc1cc(-c2c(-c3cnn(CC4CC4)c3)[nH]c3ncc(C(=O)OC(C)C)c(C)c23)ccc1C [Example 21] : reported IC50 = ?
≤ 50 nM

Any idea what its IC50 is? The molecule is C=CC(=O)Nc1cc(-c2c(-c3cnn(C)c3)[nH]c3ncc(C(=O)OC(C)C)cc23)cc(F)c1C [Example 2, 2,2,2-trifluoroacetate]
≤ 50 nM
